- ASSAY_PROTOCOL: Metabolic stability in human liver microsomes assessed as compound remaining at 10 uM incubated for 60 mins in absence of NADPH by LC-MS/MS analysis
- Format: ADME, Microsome
- EXPERIMENTAL_CONTEXT: read-out: Stability
// remaining at 1 h, 10 µM lookup, one value per entry
Record the value in %, omitting the unit from your answer.

## Input If you can, please state the reported remaining at 1 h, 10 µM value of CC(=O)NC[C@@H]1OC(=O)N2Cc3cc(-c4ccc(C#N)cc4)c(F)cc3O[C@@H]12 .
## Output 120

## Input If you can, please state the reported remaining at 1 h, 10 µM value of COC(=O)NC[C@@H]1OC(=O)N2Cc3cc(-c4ccc(C#N)cc4)c(F)cc3O[C@@H]12 .
## Output 108

## Input If you can, please state the reported remaining at 1 h, 10 µM value of COC(=O)NC[C@@H]1OC(=O)N2Cc3cc(-c4ccc(-c5nnn(C)n5)nc4)c(F)cc3O[C@@H]12 .
## Output 120

## Input If you can, please state the reported remaining at 1 h, 10 µM value of COC(=O)NC[C@@H]1OC(=O)N2Cc3cc(-c4ccc(C#N)nc4)c(F)cc3O[C@@H]12 .
## Output 114

----------
- ASSAY_PROTOCOL: Cmax in BALB/c mouse at 10 mg/kg,po administration measured upto 24 hrs by LC-MS/MS analysis
- Assay type: ADME, organism-based
- EXPERIMENTAL_CONTEXT: in vivo
// Cmax lookup, one value per entry
# do not omit the unit; it follows the number

                              smiles_string    reported
0  COC(=O)NC[C@@H]1OC(=O)N2Cc3cc(-c4ccc(C#N)cc4)c(F)cc3O[C@@H]12  2790 ng/mL

Would you kindly look at the next entry?
## Input If you can, please state the reported Cmax value of CC(=O)NC[C@@H]1OC(=O)N2Cc3cc(-c4ccc(C#N)cc4)c(F)cc3O[C@@H]12 .
## Output 4510 ng/mL

----------
- System: Staphylococcus aureus
- ASSAY_PROTOCOL: Antibacterial activity against Staphylococcus aureus ATCC25923 assessed as inhibition of bacterial growth incubated for 18 hrs by microdilution broth assay
- Assay type: functional
Just a reminder that ties go to label 0: only MIC strictly below 4 µg/mL counts as label 1.

>>> print(df.to_string())
                              smiles_string    group
0  Cn1nnc(-c2ccc(-c3c(F)cc4c(c3F)CN3C(=O)O[C@@H](CN)[C@@H]3O4)cn2)n1  label 0
1  CC(=O)NC[C@@H]1OC(=O)N2Cc3c(cc(F)c(-c4ccc(-c5nnn(C)n5)nc4)c3F)O[C@@H]12  label 1
2  CC(=O)NC[C@@H]1OC(=O)N2Cc3cc(-c4ccn5ncnc5c4)c(F)cc3O[C@@H]12  label 0
3  CC(=O)NC[C@H]1OC(=O)N2Cc3c(cc(F)c(-c4ccc(C#N)nc4)c3F)O[C@H]12  label 0
4  CC(=O)NC[C@@H]1OC(=O)N2Cc3cc(-c4ccc5c(c4)NC(=O)CO5)c(F)cc3O[C@@H]12  label 0
5  CC(=O)NC[C@@H]1OC(=O)N2Cc3cc(-c4ccc(C#N)cc4)c(F)cc3O[C@@H]12  label 1

Now consider a different compound.
## Input Determine if N#Cc1ccc(-c2c(F)cc3c(c2F)CN2C(=O)O[C@@H](CN)[C@@H]2O3)cc1 shows MIC strictly lower than 4 µg/mL.
## Output label 0

Data provenance: ChEMBL document CHEMBL5608235
